- assay_target: Histone deacetylase 8 (Schistosoma mansoni)
- Sequence (A5H660 whole entry): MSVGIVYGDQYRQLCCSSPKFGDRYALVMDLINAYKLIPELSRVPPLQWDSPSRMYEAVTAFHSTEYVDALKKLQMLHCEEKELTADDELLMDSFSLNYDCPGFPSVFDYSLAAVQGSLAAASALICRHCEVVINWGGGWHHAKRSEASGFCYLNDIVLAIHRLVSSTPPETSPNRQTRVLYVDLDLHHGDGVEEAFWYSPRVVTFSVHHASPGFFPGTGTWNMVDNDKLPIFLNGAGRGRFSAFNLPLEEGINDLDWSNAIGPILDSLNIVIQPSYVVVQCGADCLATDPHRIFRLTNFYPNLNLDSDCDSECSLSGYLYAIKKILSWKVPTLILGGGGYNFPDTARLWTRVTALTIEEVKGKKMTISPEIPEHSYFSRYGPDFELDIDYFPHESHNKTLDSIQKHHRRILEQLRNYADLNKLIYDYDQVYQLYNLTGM
- test_method_notes: Inhibition of recombinant Schistosoma mansoni HDAC8 expressed in Escherichia coli using Fluor de Lys as substrate preincubated for 90 mins followed by BML-KI176 addition measured after 45 mins by fluorescence assay
- condition_notes: read-out: IC50
pIC50: −log10 of the molar value.
quantity_kind: pIC50

CN(C)c1cccc(C(=O)NO)c1	5.80
O=C(NO)c1ccc(C(F)(F)F)c(NC(=O)c2ccccc2)c1	6.86
O=C1CCSc2ccc(C(=O)NO)cc2N1	5.91

1: Cc1ccc(C(=O)NO)cc1NC(=O)c1ccccc1
2: O=C(NO)c1cccc(NCc2ccccc2)c1
Select the item with the higher value of pIC50 from the options 1 and 2 listed. Refer to your chosen item by its label in the answer.
1

1: O=C(NO)c1ccc(Cl)c(NC(=O)c2ccc(Oc3ccccc3)cc2)c1
2: COc1ccc(C(=O)Nc2cc(C(=O)NO)ccc2OC)cc1
3: COc1ccc(C(=O)NO)cc1OCc1ccccc1
4: Cc1ccc(C(=O)NO)cc1NC1CCCCC1
Order the entries by their reported pIC50, beginning at the minimum. Respond with an ordered listing of the labels, as requested.
1, 4, 3, 2

1: O=C(NO)c1ccc(Cl)c(NC(=O)c2cccc(OCc3ccccc3)c2)c1
2: O=C(NO)c1ccc2ccccc2n1
3: O=C(NO)c1ccc(Br)c(NC(=O)c2ccccc2)c1
Exam item: list the entries in increasing order of pIC50. Your task in answering is to list the labels in the requested order.
2, 1, 3
(2: 5.09, 1: 6.42, 3: 6.82)

A: COc1ccc(C(=O)NO)cc1S(=O)(=O)Nc1ccc(C)cc1
B: O=C(NO)c1cccc(NC2CCCCC2)c1
C: CCOc1ccc(C(=O)NO)cc1NC(=O)c1ccccc1
D: O=C(NO)c1ccc(Cl)c(NC(=O)c2ccc(Cl)cc2)c1
E: O=C(NO)c1cccc(N(Cc2ccccc2)Cc2ccccc2)c1
Sort ascending by pIC50. Your answer should be the labels, listed in the requested order.
E, B, A, D, C

###

- assay_target: Histone deacetylase 8 (Homo sapiens)
- test_method_notes: Inhibition of recombinant human HDAC8 using Fluor de Lys as substrate preincubated for 90 mins followed by BML-KI176 addition measured after 45 mins by fluorescence assay
- condition_notes: read-out: IC50
quantity_kind: IC50 (nM)

O=C(NO)c1ccc(Br)c(NC(=O)c2ccccc2)c1	191

1: O=C(NO)c1ccc(Cl)c(NC(=O)c2ccc(Oc3ccccc3)cc2)c1
2: CCOc1ccc(C(=O)Nc2cc(C(=O)NO)ccc2OC)cc1
API: POST /compare with 1 and 2 ; response names the item with higher IC50. Provide the label of your selected option as the answer.
1
(1: 1080 nM, 2: 438 nM)

###

- assay_target: Histone deacetylase 8 (Homo sapiens, UniProt Q9BY41)
- Sequence (Q9BY41 whole entry): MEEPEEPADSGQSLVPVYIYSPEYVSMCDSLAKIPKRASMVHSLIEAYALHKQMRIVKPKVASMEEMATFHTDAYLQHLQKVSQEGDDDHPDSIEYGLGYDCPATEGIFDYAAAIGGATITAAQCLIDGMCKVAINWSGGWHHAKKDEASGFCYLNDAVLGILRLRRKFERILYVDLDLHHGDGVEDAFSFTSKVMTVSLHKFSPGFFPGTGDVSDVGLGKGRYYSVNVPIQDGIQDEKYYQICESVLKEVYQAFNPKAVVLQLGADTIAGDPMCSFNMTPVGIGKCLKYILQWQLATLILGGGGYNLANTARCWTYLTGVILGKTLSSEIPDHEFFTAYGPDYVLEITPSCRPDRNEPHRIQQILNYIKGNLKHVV
- test_method_notes: Inhibition of recombinant human HDAC8 using Fluor de Lys as substrate preincubated for 90 mins followed by BML-KI176 addition measured after 45 mins by fluorescence assay
- condition_notes: read-out: IC50
pIC50: −log10 of the molar value.
quantity_kind: pIC50

Solved cases below.
O=C(NO)c1cccc(NC(=O)c2ccccc2)c1	6.24
Cc1ccc(C(=O)NO)cc1NC(=O)c1ccccc1	6.69
COc1ccc(C(=O)NO)cc1NC(=O)c1ccccc1Cl	6.68
O=C(NO)c1ccc(C(F)(F)F)c(NC(=O)c2ccccc2)c1	6.47

A: O=C(NO)c1cccc(N(Cc2ccccc2)Cc2ccccc2)c1
B: COc1ccc(C(=O)NO)cc1S(=O)(=O)Nc1ccc(C)cc1
Of A and B , whose reported pIC50 is numerically smaller? API: response body contains the label of the selected item.
A
(A: 5.66, B: 7.70)

###

- test_method_notes: Cytotoxicity against HEK293 cells assessed as cell viability at 50 uM after 24 hrs by Alamar Blue assay relative to control
- Type: cell-based
- condition_notes: human, read-out: Activity
viability at 24 h, 50 µM values by entry
Note: unit % is implicit; provide only the numeric part.

Example entries and their recorded answers appear below.
COc1ccc(C(=O)NO)cc1NC(=O)c1ccc(Cl)cc1	92.6
O=C(NO)c1ccc(Cl)c(NC(=O)c2ccc(Cl)cc2Cl)c1	70.4
O=C(NO)c1ccc(Cl)c(NC(=O)c2cccc(Oc3ccccc3)c2)c1	62
O=C(NO)c1ccc(F)c(NC(=O)c2ccccc2)c1	81.8

Shifting focus to the compound that follows.
// viability at 24 h, 50 µM lookup, key: CCOc1ccc(C(=O)NO)cc1NC(=O)c1ccc(-c2ccccc2)cc1
80.3

###

- assay_target: Histone deacetylase 8 (Schistosoma mansoni)
- test_method_notes: Inhibition of recombinant Schistosoma mansoni HDAC8 expressed in Escherichia coli using Fluor de Lys as substrate preincubated for 90 mins followed by BML-KI176 addition measured after 45 mins by fluorescence assay
- condition_notes: read-out: IC50
quantity_kind: IC50 (nM)

CCCOc1ccc(C(=O)NO)cc1NC(=O)c1ccccc1	267
O=C(NO)c1ccc(Cl)c(NC(=O)c2ccccc2)c1	67
O=C(NO)c1cccc(NC(=O)c2ccccc2)c1	468
O=C(NO)c1ccc(Cl)c(NC(=O)c2ccc(Cl)cc2Cl)c1	191

I: COc1ccc(C(=O)NO)cc1NC(=O)c1ccccc1Cl
II: COc1ccc(C(=O)NO)cc1NC(=O)c1ccc(Cl)cc1Cl
Please choose the item with the lower IC50 value from this pair: I and II // output: label of the selected item
II

a: O=C(NO)c1ccc(F)c(NC(=O)c2ccccc2)c1
b: O=C(NO)c1ccc(Cl)c(NC(=O)c2ccc([N+](=O)[O-])cc2)c1
c: CCOc1ccc(C(=O)NO)cc1NC(=O)c1ccc(-c2ccccc2)cc1
Number of compounds to sort: 3. Sort criterion: IC50, ascending. Show the ranking through the labels, in the order asked for.
c, a, b

1: COc1ccc(C(=O)NO)cc1NC(=O)Cc1ccccc1
2: O=C(NO)c1ccc(Cl)c(NC(=O)c2cccc(Oc3ccccc3)c2)c1
3: Cc1ccc(C(=O)NO)cc1NC(=O)c1ccc2ccccc2n1
Rank order required: IC50, descending. Respond with an ordered listing of the labels, as requested.
2, 1, 3
(2: 396 nM, 1: 183 nM, 3: 96.1 nM)

1: CC(C)Oc1ccc(C(=O)NO)cc1NC(=O)c1ccccc1
2: COc1ccc(C(=O)NO)cc1NC(=O)c1ccc(Cl)cc1
Could you point out whether the larger IC50 belongs to 1 or to 2 ? Output the label that corresponds to your choice.
1
(1: 220 nM, 2: 146 nM)

1: COc1ccc(C(=O)NO)cc1NC(=O)c1ccccc1
2: CCOc1ccc(C(=O)Nc2cc(C(=O)NO)ccc2OC)cc1
Which record shows the lower IC50: the first, 1 , or the second, 2 ? Could you answer with the label of the item you picked?
1

A: COc1ccc(C(=O)Nc2cc(C(=O)NO)ccc2Cl)cc1
B: COc1ccc(C(=O)NO)cc1NC(=O)c1cccc(-c2ccccc2)c1
Sort A and B by IC50 descending and give the first. Answer by stating the label of the chosen item.
B

###

- assay_target: Histone deacetylase 8 (Homo sapiens)
- test_method_notes: Inhibition of recombinant human HDAC8 using Fluor de Lys as substrate preincubated for 90 mins followed by BML-KI176 addition measured after 45 mins by fluorescence assay
- condition_notes: read-out: IC50
pIC50: −log10 of the molar value.
quantity_kind: pIC50

CN(C)c1cccc(C(=O)NO)c1	7.15
COc1ccc(C(=O)NO)cc1NC(=O)c1ccc(Cl)cc1	6.62

I: O=C(NO)c1ccc(Cl)c(NC(=O)c2cccc(Oc3ccccc3)c2)c1
II: CC(C)Oc1ccc(C(=O)NO)cc1NC(=O)c1ccccc1
III: Cc1ccc(C(=O)NO)cc1NC1CCCCC1
IV: O=C(NO)c1cccc(NC2CCCCC2)c1
Would you mind ranking these compounds by ascending pIC50? A complete answer lists every label in the requested sequence.
IV, I, III, II
(IV: 6.08, I: 6.35, III: 6.98, II: 7.54)

A: Cc1ccc(C(=O)NO)cc1NC(=O)c1ccc2ccccc2n1
B: COc1ccc(C(=O)Nc2cc(C(=O)NO)ccc2OC)cc1
C: COc1ccc(C(=O)Nc2cc(C(=O)NO)ccc2Cl)cc1
Arrange these compounds by their pIC50, starting with the largest number. Please reply with the labels ordered as requested. Many thanks.
A, B, C
(A: 7.52, B: 7.11, C: 6.63)
